Assay: Pharmacokinetic study in mice (IV and PO), plasma
Assay type: in vivo, mouse
Conditions: mouse plasma, PO, 10 mg/kg
Measured Vz_obs, listed per entry.
Give the number first and the unit second.

CN1CCN(CCOc2cnc(N[C@H]3CC[C@@H](Oc4nc(N5CCOCC5)cc5ncccc45)CC3)nc2)CC1; 12835.77 mL/kg
CN(C)C(=O)Cn1c(=O)n(C2CCOCC2)c2nc(N[C@H]3CC[C@@H](Oc4nc(N5CCOCC5)cc5ncccc45)CC3)ncc21; 4415.23 mL/kg
O=C(COc1cnc(N[C@H]2CC[C@@H](Oc3nc(N4CCOCC4)cc4ncccc34)CC2)nc1)N1CCC1; 1715.97 mL/kg
O=C(COc1cnc(N[C@H]2CC[C@@H](Oc3nc(N4CCOCC4)cc4ncccc34)CC2)nc1)N1CCOCC1; 2356.41 mL/kg

Please look at the following compound next.
Looking for the measured Vz_obs of CN(C)C(=O)Cn1ccc2nc(N[C@H]3CC[C@@H](Oc4nc(N5CCOCC5)cc5ncccc45)CC3)ncc21 , can you help? 16019 mL/kg

====

Experiment: Pharmacokinetic study in mice (IV and PO), plasma
Type: in vivo, mouse
Settings: female, C57BL/6; mouse plasma, IV, 3 mg/kg
Assign class by half-life: not lower than 2 h means true; lower than 2 h means false.

O=C(COc1cnc(N[C@H]2CC[C@@H](Oc3nc(N4CCOCC4)cc4ncccc34)CC2)nc1)N1CCOCC1 [Compound 61]; true

Answer whether half-life of CN(C)C(=O)Cn1c(=O)n(C2CCOCC2)c2nc(N[C@H]3CC[C@@H](Oc4nc(N5CCOCC5)cc5ncccc45)CC3)ncc21 [Compound 97] is greater than or equal to 2 h. true

Reported half-life reaches at least 2 h for CN1CCN(CCOc2cnc(N[C@H]3CC[C@@H](Oc4nc(N5CCOCC5)cc5ncccc45)CC3)nc2)CC1 [Compound 69] ? true

For this compound, is measured half-life 2 h or higher? CN(C)C(=O)Cn1ccc2nc(N[C@H]3CC[C@@H](Oc4nc(N5CCOCC5)cc5ncccc45)CC3)ncc21 [Compound 86] false

Could you please find out whether O=C(COc1cnc(N[C@H]2CC[C@@H](Oc3nc(N4CCOCC4)cc4ncccc34)CC2)nc1)N1CCC1 [Compound 75] has half-life that meets 2 h or exceeds it? false

====

Each item that follows carries a reported pIC50.
Molecular target: DNA-PK phosphorylation at Serine 2056 (Homo sapiens)
Construct: FaDu cells were purchased from ATCC; host or cells: FaDu
Assay: Cellular Assay for Inhibition of DNA-PK Phosphorylation at Serine 2056 in FaDu cells (sandwich ELISA, neocarzinostatin)
Format: cell-based
Details: pSer2056 DNA-PK, neocarzinostatin 1 μg/mL, Table 1
pIC50: −log10 of the molar value.

Recorded pIC50, per entry:
CN(C)C(=O)Cn1ccc(C(=O)N[C@H]2CC[C@@H](Oc3nc(N4CCOCC4)cc4ncccc34)CC2)c1; > 7.00
N=C(N)N[C@H]1CC[C@@H](Oc2nc(N3CCOCC3)cc3ncccc23)CC1; 5.00 to 6.00
CS(=O)(=O)c1cnc2cc(N3CCOCC3)nc(O[C@H]3CC[C@@H](Nc4ncccn4)CC3)c2c1 [Compound 200b]; 6.00 to 7.00

Item CCOC(=O)c1cnc(N[C@H]2CC[C@@H](Oc3nc(N4CCOCC4)cc4ncccc34)CC2)nc1NC1CCOCC1 has what recorded pIC50? 6.00 to 7.00

Could you tell me which pIC50 is on file for COC(=O)c1cnc2cc(N3CCOCC3)nc(O[C@H]3CC[C@@H](n4ccnc4)CC3)c2c1 ? 5.00 to 6.00

Look at this molecule and give its reported pIC50. O=C(Nc1ccccc1)N[C@H]1CC[C@@H](Oc2nc(N3CCOCC3)cc3ncccc23)CC1 6.00 to 7.00

Need pIC50 of CN(C)C(=O)COc1ccc(N[C@H]2CC[C@@H](Oc3nc(N4CCOCC4)cc4ncccc34)CC2)nn1 , thanks. 4.52 to 5.00

====

Test: Hepatocyte Stability Assay, human hepatocytes
Assay type: in vitro ADME
Conditions: human hepatocytes, 120 min
value-kind: Hepatocyte Stability Human % rem. 120 min

CN(C)C(=O)COc1ccc(C(=O)N[C@H]2CC[C@@H](Oc3nc(N4CCOCC4)cc4ncccc34)CC2)cn1; G (% remaining = 50-75%)
O=S(=O)(CC(F)F)Nc1cnc2cc(N3CCOCC3)nc(O[C@H]3CC[C@@H](Nc4ncccn4)CC3)c2c1; G (% remaining = 50-75%)

====

Test: Hepatocyte Stability Assay, mouse hepatocytes
Assay type: in vitro ADME
Settings: male, CD-1, cryopreserved hepatocytes, pH 7.3; mouse hepatocytes 0.7 million cells per mL, 1 uM compound
value-kind: hepatocyte CLint at 1 uM

The following compounds have reported results that may help.
CN(C)C(=O)Cn1ccc2nc(N[C@H]3CC[C@@H](Oc4nc(N5CCOCC5)cc5ncccc45)CC3)ncc21; < 8.2 µL/min/1e6 cells
CN1CCN(C(=O)COc2cnc(N[C@H]3CC[C@@H](Oc4nc(N5CCOCC5)cc5ncccc45)CC3)nc2)CC1; < 8.2 µL/min/1e6 cells

Value lookup for hepatocyte CLint at 1 uM; key = O=C(NO)c1cnc2cc(N3CCOCC3)nc(O[C@H]3CC[C@@H](n4ccnc4)CC3)c2c1 > 8.2 µL/min/1e6 cells

Need hepatocyte CLint at 1 uM of CNC(=O)COc1cnc(N[C@H]2CC[C@@H](Oc3nc(N4CCOCC4)cc4ncccc34)CC2)nc1 , thanks. < 8.2 µL/min/1e6 cells

====

Tested on: pH2AX induction in HCT116 ATM-/- multicellular tumour spheroids
Assay: Prodrug Radiation Sensitization in Multicellular Tumour Spheroids, inhibition of pH2AX induction following radiation
Assay type: cell-based
Conditions: Homo sapiens, HCT-116, 20 Gy, 5% O2, inner layers, read-out: Prodrug 5% O2 Inner layers EC50
Method: Prodrug compounds were assayed to determine their potency in 3D multicellular spheroids in media maintained under 20% vs 5% oxygen. Multicellular tumour spheroids were grown to approximately 0.5 mm in diameter and irradiated with 20 Gy in combination with inhibitor test compounds to determine their potency using HCT 116 and FaDu cell lines. Experiments were carried out in 96 well plates containing 0.7 mls of MEM media containing 10% FBS and 10 mM glucose under 5% CO2 at 37° C. […]
value-kind: EC50

Examples with their reported EC50 follow.
CC(c1cnn(C)c1[N+](=O)[O-])N(c1cnc2cc(N3CCOCC3)nc(O[C@H]3CC[C@@H](Nc4ncc(OC5CCN(C)C5)cn4)CC3)c2c1)S(C)(=O)=O (stereo partly drawn) [LFA2064]; 10 to 500 nM
CC(Oc1cnc2cc(N3CCOCC3)nc(O[C@H]3CC[C@@H](Nc4ccccn4)CC3)c2c1)c1cnc([N+](=O)[O-])n1C (stereo partly drawn) [LFA2084]; 10 to 500 nM
CC(c1cnc([N+](=O)[O-])n1C)N(c1cnc2cc(N3CCOCC3)nc(O[C@H]3CC[C@@H](Nc4ncc(OCCN5CCOCC5)cn4)CC3)c2c1)S(C)(=O)=O (stereo partly drawn) [LFA2054]; 10 to 500 nM
Cn1c(Cn2nnc(-c3cnc4cc(N5CCOCC5)nc(O[C@H]5CC[C@@H](n6ccnc6)CC5)c4c3)n2)cnc1[N+](=O)[O-] [LFA123]; 1000 to 10000 nM
CN(C)Cc1cnc(N[C@H]2CC[C@@H](Oc3nc(N4CCOCC4)cc4ncc(OCc5cnc([N+](=O)[O-])n5C)cc34)CC2)nc1 [LFA2086]; 1000 to 10000 nM
CC(c1cnn(C)c1[N+](=O)[O-])N(c1cnc2cc(N3CCOCC3)nc(O[C@H]3CC[C@@H](Nc4ncc(OCCN5CCOCC5)cn4)CC3)c2c1)S(C)(=O)=O (stereo partly drawn) [LFA2077]; 10 to 500 nM

Record lookup: for pH2AX induction in HCT116 ATM-/- multicellular tumour spheroids, what EC50 belongs to CC(c1cnc([N+](=O)[O-])n1C)N(c1cnc2cc(N3CCOCC3)nc(O[C@H]3CC[C@@H](Nc4ncc(OCCN5CCN(C)CC5)cn4)CC3)c2c1)S(C)(=O)=O (stereo partly drawn) [LFA2060] ? 500 to 1000 nM

Form: Entry = Cn1c(COC(=O)Nc2cnc3cc(N4CCOCC4)nc(O[C@H]4CC[C@@H](Nc5ncccn5)CC4)c3c2)cnc1[N+](=O)[O-] [LFA108] | System = pH2AX induction in HCT116 ATM-/- multicellular tumour spheroids | EC50 = ____ 10 to 500 nM

// lookup EC50 | system=pH2AX induction in HCT116 ATM-/- multicellular tumour spheroids | key= CC(c1cnn(C)c1[N+](=O)[O-])N(c1cnc2cc(N3CCOCC3)nc(O[C@H]3CC[C@@H](Nc4ncc(N5CCN(C)CC5)cn4)CC3)c2c1)S(C)(=O)=O (stereo partly drawn) [LFA2067] 10 to 500 nM

Query the reported EC50 for pH2AX induction in HCT116 ATM-/- multicellular tumour spheroids; item: COc1cccnc1N[C@H]1CC[C@@H](Oc2nc(N3CCOCC3)cc3ncc(N(Cc4cnc([N+](=O)[O-])n4C)S(C)(=O)=O)cc23)CC1 [LFA2009] 1000 to 10000 nM
